# Target entity: GST-MCL-1 (Homo sapiens)
# Sequence (Q07820 whole entry): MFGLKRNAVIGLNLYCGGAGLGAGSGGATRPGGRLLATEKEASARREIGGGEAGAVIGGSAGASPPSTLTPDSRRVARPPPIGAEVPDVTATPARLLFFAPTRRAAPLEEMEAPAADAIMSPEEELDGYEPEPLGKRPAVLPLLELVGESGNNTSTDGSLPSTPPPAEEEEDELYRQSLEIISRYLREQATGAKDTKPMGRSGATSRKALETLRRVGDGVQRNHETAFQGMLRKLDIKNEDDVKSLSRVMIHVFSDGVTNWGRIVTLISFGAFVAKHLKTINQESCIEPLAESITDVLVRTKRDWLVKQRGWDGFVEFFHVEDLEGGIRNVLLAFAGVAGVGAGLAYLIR
# Test: TR-FRET MCL-1 binding assay (competition with probe F-Bak)
# Measurement parameters: without HS; read-out: MCL-1 Binding Ki
# Experimental: Tb-anti-GST antibody was purchased from Invitrogen (Catalog No. PV4216). […] The samples were then mixed on a shaker for 1 minute and incubated for an additional 2 hours at room temperature. […] Fluorescence was measured on the Envision (Perkin Elmer) using a 340/35 nm excitation filter and 520/525 (F-Bak) and 495/510 nm (Tb-labeled anti-his antibody) emission filters. […]
Measurement label: Ki
Please state the number and follow it with the unit.

Example entries and their recorded answers appear below.
• Cc1c(Cl)c2c(Cl)c(C)c1-c1c(-c3ccc(F)cc3)sc3ncnc(c13)O[C@@H](C(=O)O)Cc1cc(ccc1OCc1ccnc(C(C)(C)COCCOC[C@H]3COCCO3)n1)OC[C@@H](CN1CCN(C)CC1)O2 [Example 80] = 0.107 nM
• Cc1c(Cl)c2c(Cl)c(C)c1-c1c(-c3ccc(F)cc3)sc3ncnc(c13)O[C@@H](C(=O)O)Cc1cc(ccc1OCc1ccnc([C@H]3CC[C@H](CC(=O)O)CC3)n1)OC[C@@H](CN1CCN(C)CC1)O2 [Example 32] = 0.003 nM
• CO[C@H]1O[C@H](COc2ccc(-c3nccc(COc4ccc5cc4C[C@H](C(=O)O)Oc4ncnc6sc(-c7ccc(F)cc7)c(c46)-c4ccc(c(Cl)c4C)CN(CCN4CCN(C)CC4)C5)n3)cc2)[C@@H](O)[C@H](O)[C@H]1O [Example 9] = 0.048 nM

Note: attention shifts to another entry.
Problem: Fill in the blank: the reported Ki of COCCOCCOCCOCc1ccc(-c2nccc(COc3ccc4cc3C[C@H](C(=O)O)Oc3ncnc5sc(-c6ccc(F)cc6)c(c35)-c3c(C)c(Cl)c(c(Cl)c3C)O[C@H](CN3CCN(C)CC3)CO4)n2)c(OCCOCCOCCOC)c1 [Example 153] is ____.
Solution: 0.001 nM

====

# Test system: AMO-1 human multiple myeloma tumor cell line
# Test: AMO-1 cell viability assay (CellTiter-Glo, 24 hours)
# Type: cell-based
# Measurement parameters: Homo sapiens, AMO1, 24 h, read-out: AMO-1 Viability IC50 (μM, 10% FBS), 10% FBS, 24 hours of compound treatment
A collection of molecules and their measured IC50
Give your result in µM as a bare value.

// solved cases for IC50 follow
• COCCOCCOCCOCCOCCOCC1(F)CC=C(c2nccc(COc3ccc4cc3C[C@H](C(=O)O)Oc3ncnc5sc(-c6ccc(F)cc6)c(c35)-c3c(C)c(Cl)c(c(Cl)c3C)O[C@H](CN3CCN(C)CC3)CO4)n2)CC1 (single isomer, unassigned) = 0.0006
• Cc1c(Cl)c2c(Cl)c(C)c1-c1c(-c3ccc(F)cc3)sc3ncnc(c13)O[C@@H](C(=O)O)Cc1cc(ccc1OCc1ccnc(-c3cccc(CCN4CCOCC4)c3)n1)OC[C@@H](CN1CCN(C)CC1)O2 = 0.000216
• COCCOCCOCCOCCOC1(c2nccc(COc3ccc4cc3C[C@H](C(=O)O)Oc3ncnc5sc(-c6ccc(F)cc6)c(c35)-c3c(C)c(Cl)c(c(Cl)c3C)O[C@H](CN3CCN(C)CC3)CO4)n2)CCC1 = 0.00163

Problem: Form entry - test system: AMO-1 human multiple myeloma tumor cell line; read-out: IC50; molecule: Cc1c(Cl)c2c(Cl)c(C)c1-c1c(-c3ccc(F)cc3)sc3ncnc(c13)O[C@@H](C(=O)O)Cc1cc(ccc1OCc1ccnc([C@H]3CC[C@@H](CC(=O)O)CC3)n1)OC[C@@H](CN1CCN(C)CC1)O2
Solution: 0.00743
